Catalogue of compounds with associated pKi
Molecular target: CB1R (Rattus norvegicus)
Construct: Crude membrane fractions were prepared from the brain
Sequence (P20272 whole entry): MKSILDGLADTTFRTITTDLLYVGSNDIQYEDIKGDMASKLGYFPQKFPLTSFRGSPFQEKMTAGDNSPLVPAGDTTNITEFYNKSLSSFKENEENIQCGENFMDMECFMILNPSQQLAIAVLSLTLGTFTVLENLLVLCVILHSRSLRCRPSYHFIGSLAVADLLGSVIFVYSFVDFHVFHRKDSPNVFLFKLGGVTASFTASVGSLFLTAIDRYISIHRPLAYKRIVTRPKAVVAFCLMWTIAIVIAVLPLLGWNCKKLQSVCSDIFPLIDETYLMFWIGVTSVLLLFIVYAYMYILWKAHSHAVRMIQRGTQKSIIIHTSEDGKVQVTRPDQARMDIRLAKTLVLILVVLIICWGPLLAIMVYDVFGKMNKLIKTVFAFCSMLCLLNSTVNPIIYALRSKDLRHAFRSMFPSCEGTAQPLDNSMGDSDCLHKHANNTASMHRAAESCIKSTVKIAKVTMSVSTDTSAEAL
Test: [3H]WIN55,212-2 radioligand competition binding assay in rat brain membrane homogenate
Details: read-out: Ki [3H]WIN55,212-2 binding, 5 nM [3H]WIN55,212-2, ± SEM, n.b. = no binding of ligands was observed
pKi: −log10 of the molar value.

molecular_string: CNC(=O)[C@@H](NC(=O)c1cc(-n2cccc2)n(-c2ccc(Cl)cc2)n1)C(C)(C)C
pKi: 7.38
//
molecular_string: COC(=O)[C@@H](NC(=O)c1nn(-c2ccc(Cl)cc2Cl)c(-n2cccc2Cl)c1C)C(C)(C)C
pKi: 7.68
//
molecular_string: CNC(=O)[C@@H](NC(=O)c1cc(-n2cccc2)n(-c2ccccc2)n1)C(C)(C)C
pKi: 6.21
//
molecular_string: CNC(=O)[C@@H](NC(=O)c1nn(-c2ccc(Cl)cc2Cl)c(-n2cccc2Cl)c1C)C(C)C
pKi: 6.73
//
molecular_string: COC(=O)[C@@H](NC(=O)c1cc(-n2cccc2)n(-c2ccc(Cl)cc2)n1)C(C)C
pKi: 6.58
//
molecular_string: Cc1c(C(=O)N[C@H](C(=O)O)C(C)(C)C)nn(-c2ccc(Cl)cc2)c1-n1cccc1
pKi: 5.23
//
molecular_string: COC(=O)[C@@H](NC(=O)c1cc(-n2cccc2)n(-c2ccc(Cl)cc2)n1)C(C)(C)C
pKi: 7.36
//
molecular_string: COC(=O)[C@@H](NC(=O)c1nn(-c2ccccc2)c(-n2cccc2)c1C)C(C)C
pKi: 6.35
//
molecular_string: CNC(=O)[C@@H](NC(=O)c1cc(-n2cccc2)n(-c2ccc(Cl)cc2)n1)C(C)C
pKi: 6.41
//
molecular_string: CC(C)(C)[C@H](NC(=O)c1cc(-n2cccc2)n(-c2ccccc2)n1)C(N)=O
pKi: 5.83
//
molecular_string: Cc1c(C(=O)N[C@H](C(N)=O)C(C)(C)C)nn(-c2ccc(Cl)cc2)c1-n1cccc1
pKi: 7.68
//
molecular_string: CC(C)(C)[C@H](NC(=O)c1cc(-n2cccc2)n(-c2ccc(Cl)cc2)n1)C(N)=O
pKi: 6.99
//
molecular_string: Cc1c(C(=O)N[C@H](C(N)=O)C(C)C)nn(-c2ccc(Cl)cc2)c1-n1cccc1
pKi: 6.91

====

Target: CB1R (Rattus norvegicus)
Construct: Crude membrane fractions were prepared from the brain
Assay: [3H]WIN55,212-2 radioligand competition binding assay in rat brain membrane homogenate
Settings: read-out: Ki [3H]WIN55,212-2 binding, 5 nM [3H]WIN55,212-2, ± SEM, n.b. = no binding of ligands was observed
pKi: −log10 of the molar value.
The threshold is inclusive: pKi of exactly 7 counts as 1 (yes); values below receive 0 (no).

molecular_string: Cc1c(C(=O)N[C@H](C(N)=O)C(C)(C)C)nn(-c2ccccc2)c1-n1cccc1
qualitative_label: 1 (yes)

molecular_string: CNC(=O)[C@@H](NC(=O)c1nn(-c2ccc(Cl)cc2)c(-n2cccc2)c1C)C(C)C
qualitative_label: 0 (no)

molecular_string: Cc1c(C(=O)N[C@H](C(N)=O)C(C)C)nn(-c2ccccc2)c1-n1cccc1
qualitative_label: 0 (no)

molecular_string: CNC(=O)[C@@H](NC(=O)c1nn(-c2ccc(Cl)cc2)c(-n2cccc2)c1C)C(C)(C)C
qualitative_label: 1 (yes)

molecular_string: COC(=O)[C@@H](NC(=O)c1nn(-c2ccc(Cl)cc2Cl)c(-n2cccc2Cl)c1C)C(C)C
qualitative_label: 1 (yes)

molecular_string: CC(C)[C@H](NC(=O)c1cc(-n2cccc2)n(-c2ccc(Cl)cc2)n1)C(N)=O
qualitative_label: 0 (no)

molecular_string: COC(=O)[C@@H](NC(=O)c1nn(-c2ccccc2)c(-n2cccc2)c1C)C(C)(C)C
qualitative_label: 0 (no)
